Molecular target: UniProt:P51144
Sequence (P51144 whole entry): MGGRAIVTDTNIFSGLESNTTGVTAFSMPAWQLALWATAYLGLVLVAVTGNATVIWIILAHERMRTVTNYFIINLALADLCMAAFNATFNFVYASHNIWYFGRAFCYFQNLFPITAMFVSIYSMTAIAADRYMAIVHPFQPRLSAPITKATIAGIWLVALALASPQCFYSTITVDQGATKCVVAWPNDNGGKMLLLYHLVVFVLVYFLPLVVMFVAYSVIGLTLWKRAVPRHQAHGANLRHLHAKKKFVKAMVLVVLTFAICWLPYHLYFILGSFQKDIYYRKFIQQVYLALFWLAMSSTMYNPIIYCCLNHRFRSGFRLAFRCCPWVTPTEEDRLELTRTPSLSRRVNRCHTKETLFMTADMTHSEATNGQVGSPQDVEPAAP
Non-standard residues stand in square brackets, D forms with d. Residues, ends and D or L forms follow the SMILES beside them. *: point of attachment. X1 = CC(C)C[C@@H](CN[C@@H](CC(C)C)C(N)=O)N*; βAla = NCCC(=O)O
Recorded IC50 by entry
Answer in µM, number only, no unit symbol.

The cases that follow already have their IC50 on record.
# input Any idea what IC50 was measured for CC(C)C[C@H](NC(=O)[C@H](CC(C)C)NC(=O)CNC[C@@H](NC(=O)[C@H](Cc1ccccc1)NC(=O)[C@H](CO)NC(=O)[C@@H](N)CC(=O)O)C(C)C)C(N)=O ?
# output 5.66

# input Entry to check: CC(C)C[C@@H](CN[C@@H](CC(C)C)C(N)=O)NC(=O)CCNC(=O)[C@@H](NC(=O)[C@H](Cc1ccccc1)NC(=O)[C@H](CO)NC(=O)[C@@H](N)CC(=O)O)C(C)C (H-DSFV[βAla]-X1)
# output 0.108

// below: IC50 requested for another compound
# input Any idea what IC50 was measured for CSCC[C@H](NC(=O)[C@H](CC(C)C)NC(=O)CNC(=O)[C@@H](NC(=O)[C@H](Cc1ccccc1)NC(=O)[C@H](CO)NC(=O)[C@@H](N)CC(=O)O)C(C)C)C(N)=O ?
# output 0.006

====

Molecular target: Substance-K receptor (Mesocricetus auratus, UniProt P51144)
Sequence (P51144 whole entry): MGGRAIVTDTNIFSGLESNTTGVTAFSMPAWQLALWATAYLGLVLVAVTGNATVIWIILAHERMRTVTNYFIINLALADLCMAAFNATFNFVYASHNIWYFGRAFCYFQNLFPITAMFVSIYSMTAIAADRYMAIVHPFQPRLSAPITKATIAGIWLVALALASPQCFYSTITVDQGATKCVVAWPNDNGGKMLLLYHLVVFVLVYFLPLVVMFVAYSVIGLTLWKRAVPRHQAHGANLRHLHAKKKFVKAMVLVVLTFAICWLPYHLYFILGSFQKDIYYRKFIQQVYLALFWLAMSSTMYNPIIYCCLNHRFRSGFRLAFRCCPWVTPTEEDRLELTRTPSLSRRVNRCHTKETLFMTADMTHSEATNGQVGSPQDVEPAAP
Starred links: 1 amine or outer side, 2 acyl side, 3 side chain; linkers in the order of their positions; H or OH if unused. Non-standard residues stand in square brackets, D forms with d. Residues, ends and D or L forms follow the SMILES beside them. *: point of attachment. X3 = N[C@@H](CC(=O)O)C(=O)N[C@@H](CO)CN([C@@H](Cc1ccccc1)C(=O)[*:2])[*:1]; Leuψ(CH2NH)PheNH2 = CC(C)C[C@@H](CN[C@@H](Cc1ccccc1)C(N)=O)N*; X9 = CC(C)CC(=O)N(C[C@H](CC(C)C)N*)[C@@H](CC(C)C)C(N)=O; X7 = CCCN(C[C@H](CC(C)C)N*)[C@@H](Cc1ccccc1)C(N)=O; X2 = CCN(C[C@H](CC(C)C)N*)[C@@H](CC(C)C)C(N)=O; X8 = CC(C)C[C@@H](CN(C)[C@@H](CC(C)C)C(N)=O)N*; X1 = CC(C)C[C@@H](CN[C@@H](CC(C)C)C(N)=O)N*; X5 = O=C(O)CCCN([C@@H](CO)C(=O)[*:2])[*:1]; βAla = NCCC(=O)O
RESULT_TYPE: IC50

The cases that follow already have their IC50 on record.
# input Any idea what IC50 was measured for CC(C)C[C@H](NC(=O)[C@H](CC(C)C)NC(=O)CNC(=O)[C@@H](NC(=O)[C@H](Cc1ccccc1)NC[C@H](CO)NC(=O)[C@@H](N)CC(=O)O)C(C)C)C(N)=O (H-[X3]VGLL-NH2) ?
# output > 10000 nM

# input Entry to check: CC(C)CC(=O)N(C[C@H](CC(C)C)NC(=O)CNC(=O)[C@@H](NC(=O)[C@H](Cc1ccccc1)NC(=O)[C@H](CO)NC(=O)[C@@H](N)CC(=O)O)C(C)C)[C@@H](CC(C)C)C(N)=O (H-DSFVG-X9)
# output 162 nM

# input Entry to check: CC(C)C[C@H](NC(=O)[C@H](CC(C)C)NC(=O)CNC(=O)[C@@H](NC[C@H](Cc1ccccc1)NC(=O)[C@H](CO)NC(=O)[C@@H](N)CC(=O)O)C(C)C)C(N)=O
# output > 10000 nM

---
# input Any idea what IC50 was measured for CC(C)C[C@@H](CN[C@@H](Cc1ccccc1)C(N)=O)NC(=O)CCNC(=O)[C@@H](NC(=O)[C@H](Cc1ccccc1)NC(=O)[C@H](CO)NC(=O)[C@@H](N)CC(=O)O)C(C)C (H-DSFV[βAla]-{Leuψ(CH2NH)PheNH2}) ?
# output 10 nM

# input Entry to check: CC(C)C[C@@H](CN[C@@H](Cc1ccccc1)C(N)=O)NC(=O)CNC(=O)[C@@H](NC(=O)[C@H](Cc1ccccc1)NC(=O)[C@H](CO)NC(=O)[C@@H](N)CC(=O)O)C(C)C (H-DSFVG-{Leuψ(CH2NH)PheNH2})
# output 9 nM

# input Entry to check: CCCN(C[C@H](CC(C)C)NC(=O)CCNC(=O)[C@@H](NC(=O)[C@H](Cc1ccccc1)NC(=O)[C@H](CO)NC(=O)[C@@H](N)CC(=O)O)C(C)C)[C@@H](Cc1ccccc1)C(N)=O (H-DSFV[βAla]-X7)
# output 1 nM

# input Entry to check: CC(C)C[C@H](NC(=O)[C@H](CC(C)C)NC(=O)CNC(=O)[C@@H](NC(=O)[C@H](Cc1ccccc1)NC(=O)[C@H](CO)NCCCC(=O)O)C(C)C)C(N)=O (H-[X5]FVGLL-NH2)
# output 1650 nM

# input Entry to check: CC(C)C[C@@H](CN(C)[C@@H](CC(C)C)C(N)=O)NC(=O)CNC(=O)[C@@H](NC(=O)[C@H](Cc1ccccc1)NC(=O)[C@H](CO)NC(=O)[C@@H](N)CC(=O)O)C(C)C (H-DSFVG-X8)
# output 193 nM

# input Entry to check: CCN(C[C@H](CC(C)C)NC(=O)CNC(=O)[C@@H](NC(=O)[C@H](Cc1ccccc1)NC(=O)[C@H](CO)NC(=O)[C@@H](N)CC(=O)O)C(C)C)[C@@H](CC(C)C)C(N)=O (H-DSFVG-X2)
# output 277 nM

# input Entry to check: CC(C)C[C@@H](CN[C@@H](CC(C)C)C(N)=O)NC(=O)CNC(=O)[C@@H](NC(=O)[C@H](Cc1ccccc1)NC(=O)[C@H](CO)NC(=O)[C@@H](N)CC(=O)O)C(C)C (H-DSFVG-X1)
# output 115 nM
